Ref: the supplement of paper PMC7801607

test system: Plasmodium falciparum NF54 stage IV/V gametocytes; assay: % inhibition of gametocyte viability (luciferase reporter); higher = more inhibition; conditions: 5 µM; 48 h
Kindly supply the reported % inhibition of gametocyte viability values for the records listed here.
Give bare numbers, in %.

[
  {
    "mol": "Cc1nc2ccc(Oc3ccccc3)cc2c2c1CCN2CCc1ccccc1",
    "test-target": "Plasmodium falciparum NF54 stage IV/V gametocytes",
    "% inhibition of gametocyte viability [%]": 63.3
  }
]

Items follow; give % inhibition of gametocyte viability for each.
1. Cc1cccc(CC(=O)N[C@H]2CCOC2=O)c1
2. CCCCCCCCCN1C[C@@H](O)[C@H](O)[C@@H](O)[C@@H]1CO

1. 5.44
2. 2.49
